Biological target: UniProtKB Q9UF33
Sequence (Q9UF33 whole entry, looked up): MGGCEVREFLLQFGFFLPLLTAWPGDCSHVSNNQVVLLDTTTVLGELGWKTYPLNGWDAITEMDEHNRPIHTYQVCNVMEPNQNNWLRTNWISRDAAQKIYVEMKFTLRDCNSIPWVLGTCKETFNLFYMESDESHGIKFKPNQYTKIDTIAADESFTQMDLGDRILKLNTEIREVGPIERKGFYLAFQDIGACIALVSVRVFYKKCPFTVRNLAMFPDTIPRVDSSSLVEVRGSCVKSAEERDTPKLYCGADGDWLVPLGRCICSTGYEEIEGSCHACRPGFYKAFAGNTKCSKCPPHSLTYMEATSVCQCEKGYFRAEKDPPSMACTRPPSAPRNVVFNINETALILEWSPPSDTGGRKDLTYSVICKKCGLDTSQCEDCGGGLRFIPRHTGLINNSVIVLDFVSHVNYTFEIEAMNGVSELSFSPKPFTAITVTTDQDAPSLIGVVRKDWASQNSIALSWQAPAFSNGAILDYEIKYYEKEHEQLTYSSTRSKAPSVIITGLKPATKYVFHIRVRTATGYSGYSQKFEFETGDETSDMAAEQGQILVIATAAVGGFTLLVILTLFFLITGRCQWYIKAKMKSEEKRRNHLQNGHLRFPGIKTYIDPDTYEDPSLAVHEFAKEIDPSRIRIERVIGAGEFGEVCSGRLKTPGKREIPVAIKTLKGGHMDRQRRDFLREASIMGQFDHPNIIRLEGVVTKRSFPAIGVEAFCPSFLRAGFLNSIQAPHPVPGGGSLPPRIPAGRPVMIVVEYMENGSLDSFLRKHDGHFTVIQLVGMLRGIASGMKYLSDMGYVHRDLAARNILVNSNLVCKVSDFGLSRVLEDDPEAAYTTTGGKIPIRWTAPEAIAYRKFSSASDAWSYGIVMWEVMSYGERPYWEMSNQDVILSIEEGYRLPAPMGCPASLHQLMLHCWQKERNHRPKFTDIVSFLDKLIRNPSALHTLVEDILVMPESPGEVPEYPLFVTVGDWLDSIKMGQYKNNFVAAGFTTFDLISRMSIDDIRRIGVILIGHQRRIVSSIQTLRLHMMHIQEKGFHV
Assay: radiometric filter-binding kinase assay, Kinase HotSpot
Conditions: compound 0.5 µM; ATP 10 µM
Would you please tag the item Met when its residual activity is 90% or above, and Not met when it is below?

// below: answered molecules
QUERY: Please indicate if the recorded residual activity for CCN(CC)CCNC(=O)c1c(C)[nH]c(/C=C2\C(=O)Nc3ccc(F)cc32)c1C meets or exceeds 90%.
RESULT: Not met

QUERY: Check if residual activity >= 90% (inclusive). Item: CCOC(=O)c1c(C)[nH]c(/C=C2\C(=O)Nc3ccccc32)c1C
RESULT: Not met

QUERY: Hello, I need to know if N#CC(C#N)=C(N)/C(C#N)=C/c1ccc(O)cc1 has measured residual activity not below 90%. Thanks!
RESULT: Met

QUERY: Check the entry Cc1[nH]c(/C=C2\C(=O)Nc3ccc(S(=O)(=O)N(C)c4cccc(Cl)c4)cc32)c(C)c1C(=O)N1CCN(C)CC1 : does residual activity equal or exceed 90%?
RESULT: Not met

QUERY: Textbook exercise: given the entry Oc1cccc(-c2nc(N3CCOCC3)c3oc4ncccc4c3n2)c1 , state whether its residual activity is greater than or equal to 90%.
RESULT: Not met

QUERY: Please check the record CC(C)N(CCC(=O)c1ccc2ccccc2c1)Cc1ccccc1 and state if its residual activity is at or above 90%.
RESULT: Met

QUERY: Would you say COc1cc2ncnc(Nc3cccc(Cl)c3)c2cc1OC shows residual activity at minimum 90%?
RESULT: Not met

QUERY: State whether the measured residual activity reaches 90%, counting equality as reaching it, for O=C1NC(=O)C(c2cn(CCCn3ccnc3)c3ccccc23)=C1Nc1ccccc1
RESULT: Met

QUERY: Quick check, residual activity >= 90%? O=C1NC(=O)/C(=C/c2ccc3c(c2)OC(F)(F)O3)S1
RESULT: Not met

QUERY: Check the entry Cc1ccc(Nc2nccc(N(C)c3ccc4c(C)n(C)nc4c3)n2)cc1S(N)(=O)=O : does residual activity equal or exceed 90%?
RESULT: Not met

More entries:
QUERY: Reported residual activity at or above 90%? c1ccc(-c2n[nH]cc2-c2ccnc3ccccc23)nc1
RESULT: Met

QUERY: Entry Nc1ncnc2c1c(-c1ccc(Oc3ccccc3)cc1)cn2C1CCCC1 : is its residual activity no less than 90%?
RESULT: Not met

QUERY: Hi team, for CNc1cc2c(Nc3cccc(Br)c3)ncnc2cn1 , is the recorded residual activity at or above 90%?
RESULT: Not met

QUERY: Does CO[C@H]1CC2CC[C@@H](C)[C@@](O)(O2)C(=O)C(=O)N2CCCC[C@H]2C(=O)OC([C@H](C)C[C@@H]2CC[C@@H](O)[C@H](OC)C2)CC(=O)[C@H](C)/C=C(\C)[C@@H](O)[C@@H](OC)C(=O)[C@H](C)C[C@H](C)/C=C/C=C/C=C/1C (stereo partly drawn) have a reported residual activity of at least 90%?
RESULT: Met

QUERY: Can O=C1Nc2ccc(Cl)cc2/C1=C/c1cc(Cl)c(O)c(Cl)c1 be said to have residual activity at or above 90%?
RESULT: Not met

Hello, the source for this data is the kinase profiling compilation of Christmann-Franck et al. (2016), in case you need it.
